test system: primary human hepatic stellate cells (donor 1); test: scaled lipid accumulation score (0 = DMSO-like, 1 = nortriptyline-like); higher = stronger HSC inactivation (lipid re-accumulation), active = hit call of the paper; conditions: library stock concentration: 400 uM; 48 h
About 620 (11%) of roughly 5,800 compounds showed activity. Shown is part of a subset that was picked to be rich in actives.
reported_property: scaled lipid accumulation score

Hello, I am looking for reported scaled lipid accumulation score with primary human hepatic stellate cells (donor 1) for CNCc1ccc(-c2[nH]c3cc(F)cc4c3c2CCNC4=O)cc1 [Rucaparib] . Could you help?
≤ 0 (inactive)

Hello, I am looking for reported scaled lipid accumulation score with primary human hepatic stellate cells (donor 1) for CCN1CCN(Cc2ccc(Nc3ncc(F)c(-c4cc(F)c5nc(C)n(C(C)C)c5c4)n3)nc2)CC1 [Abemaciclib] . Could you help?
0.55 (inactive)

Hello, I am looking for reported scaled lipid accumulation score with primary human hepatic stellate cells (donor 1) for COc1cc2nccc(Oc3ccc(NC(=O)Nc4cc(C)on4)c(Cl)c3)c2cc1OC [AV951 (KRN951, Tivozanib) (0.4 mM)] . Could you help?
≤ -0.005 (inactive)

Hello, I am looking for reported scaled lipid accumulation score with primary human hepatic stellate cells (donor 1) for Cc1ccc(NC(=O)c2ccc(CN3CCN(C)CC3)cc2)cc1Nc1nc(-c2cccnc2)cs1 [Masitinib] . Could you help?
0.153 (inactive)

Hello, I am looking for reported scaled lipid accumulation score with primary human hepatic stellate cells (donor 1) for COc1cc(C)c(Sc2cnc(NC(=O)c3ccc(CNC(C)C(C)(C)C)cc3)s2)cc1C(=O)N1CCN(C(C)=O)CC1 (configuration not stated) . Could you help?
≤ -0.009 (inactive)

Hello, I am looking for reported scaled lipid accumulation score with primary human hepatic stellate cells (donor 1) for OCCn1cc(-c2ccc3c(c2)CC/C3=N\O)c(-c2ccncc2)n1 . Could you help?
0.086 (inactive)

Hello, I am looking for reported scaled lipid accumulation score with primary human hepatic stellate cells (donor 1) for Cc1ccc(NC(=O)c2ccc(CN3CCN(C)CC3)cc2)cc1Nc1nc(-c2cccnc2)cs1 [Masitinib (AB1010, Masivet) (0.4 mM)] . Could you help?
0.487 (inactive)

Hello, I am looking for reported scaled lipid accumulation score with primary human hepatic stellate cells (donor 1) for O=C1NC(=O)[C@@H](c2cn3c4c(cccc24)CCC3)[C@@H]1c1c[nH]c2ccccc12 [Tivantinib] . Could you help?
0.071 (inactive)

Hello, I am looking for reported scaled lipid accumulation score with primary human hepatic stellate cells (donor 1) for COc1cc(N2CCC(C(N)=O)CC2)ccc1Nc1nc(N)c(Cl)c(Nc2ccccc2S(=O)(=O)C(C)C)n1 . Could you help?
≤ 0 (inactive)

Hello, I am looking for reported scaled lipid accumulation score with primary human hepatic stellate cells (donor 1) for C[C@H]1Oc2cc(cnc2N)-c2c(nn(C)c2C#N)CN(C)C(=O)c2ccc(F)cc21 . Could you help?
≤ 0 (inactive)

Hello, I am looking for reported scaled lipid accumulation score with primary human hepatic stellate cells (donor 1) for C=CC(=O)Nc1cc(-n2c(=O)ccc3cnc4ccc(-c5cn[nH]c5)cc4c32)ccc1C . Could you help?
≤ 0 (inactive)

Hello, I am looking for reported scaled lipid accumulation score with primary human hepatic stellate cells (donor 1) for COc1cc(C)c(Sc2cnc(NC(=O)c3ccc(CNC(C)C(C)C)cc3)s2)cc1C(=O)N1CCN(C(C)=O)CC1 (configuration not stated) . Could you help?
≤ 0 (inactive)

Hello, I am looking for reported scaled lipid accumulation score with primary human hepatic stellate cells (donor 1) for Cn1cc(C2=C(c3cn(CCCSC(=N)N)c4ccccc34)C(=O)NC2=O)c2ccccc21 . Could you help?
0.267 (inactive)

Hello, I am looking for reported scaled lipid accumulation score with primary human hepatic stellate cells (donor 1) for N#CCNC(=O)c1ccc(-c2ccnc(Nc3ccc(N4CCOCC4)cc3)n2)cc1 . Could you help?
0.038 (inactive)

Hello, I am looking for reported scaled lipid accumulation score with primary human hepatic stellate cells (donor 1) for Cn1c(Nc2ccc(C(F)(F)F)cc2)nc2cc(Oc3ccnc(-c4ncc(C(F)(F)F)[nH]4)c3)ccc21 . Could you help?
≤ -0.003 (inactive)

Hello, I am looking for reported scaled lipid accumulation score with primary human hepatic stellate cells (donor 1) for Cc1nn(C)c(COc2ccc(N3CCN(S(=O)(=O)N(C)C)CC3)cc2)c1-c1cccc2c(CCCOc3cccc4ccccc34)c(C(=O)O)n(CCN3CCOCC3)c12 . Could you help?
≤ -0.001 (inactive)

Hello, I am looking for reported scaled lipid accumulation score with primary human hepatic stellate cells (donor 1) for C=CC(=O)Nc1cc(-n2c(=O)ccc3cnc4ccc(-c5ccc(NS(C)(=O)=O)cc5)cc4c32)ccc1C . Could you help?
≤ -0.001 (inactive)
